Ref: ChEMBL document CHEMBL1201862

System: SR
Assay: NCI tumour cell line growth inhibition, 48 h
Calls of active or inactive are those of the source. Cut-off read from the data, not from the text of the source: active = GI50 up to about 1.1 µM and inactive = higher.
Lab note: assign the record to one of 1.0 = active, 0.0 = inactive

Recorded test outcome, item COc1ccc(O[C@H](CO)C[C@@H]2COC(C)(C)O2)cc1 0.0

Recorded test outcome, item Nc1ncnc2c1ncn2CCCNO 0.0

Recorded test outcome, item COc1cc2c(oc(=O)c3cc4ccoc4c(OC)c32)c2cccc(O)c12 0.0

Recorded test outcome, item c1ccc(/C(=N/Nc2ccccn2)c2ncccn2)cc1 1.0

Recorded test outcome, item Nc1ccc(Oc2ccc(C34CC5CC(C3)CC(c3ccc(Oc6ccc(N)c(O)c6)cc3)(C5)C4)cc2)cc1O 1.0

Recorded test outcome, item C[N+](C)(CCCCCC[N+](C)(C)CCCN1C(=O)c2cccc3cccc(c23)C1=O)CCCN1C(=O)c2cccc3cccc(c23)C1=O 0.0

Recorded test outcome, item CN(C)/C=N/c1nc2ncn(CCOC(=O)c3ccccc3)c2c(=O)[nH]1 0.0

Recorded test outcome, item NC(=O)SCC(=O)Nc1ccc2cccc3c2c1CC3 0.0

Recorded test outcome, item CC1Oc2cc3c(-c4c(O)cc(O)c5c(O)c6c(cc45)OC(C)C(C)C6=O)c(O)cc(O)c3c(O)c2C(=O)C1C (stereo not given) 1.0

Recorded test outcome, item Cc1occc1C(=S)Nc1ccc(Cl)c(C(=O)OC(C)C2CC2)c1 (stereo not given) 0.0

---

System: NCI-H226
Experiment: NCI tumour cell line growth inhibition, 48 h
Calls of active or inactive are those of the source. No stated cut-off is given here; in the data, active = GI50 up to about 1.1 µM and inactive = higher.
Lab note: assign the record to one of class 1 = active, class 0 = inactive

Recorded test outcome, item Cc1ccc(-c2nc3ccccc3c(=O)n2NC2OC(CO)C(O)C(O)C2O)cc1 (configuration not stated) class 0

Recorded test outcome, item CN(C)CCCSc1nc2c(c(=N)n1-c1ccccc1)c(=S)n(-c1ccccc1)c(=S)n2-c1ccccc1 class 0

Recorded test outcome, item O=C(O)C1(Cc2ccccc2)Cc2ccccc2C1 class 0

Recorded test outcome, item Cc1cc(Cl)cc2c1NC(=O)C2(O)CC(=O)c1ccco1 (configuration not stated) class 0

Recorded test outcome, item NCCNc1ncnc2ccc(Cl)cc12 class 0

Recorded test outcome, item CCOC(=O)Nc1cc2c(c(N)n1)N=C(c1ccc(OC)cc1)CN2 class 1

Recorded test outcome, item S=C1SC(=N\c2ccccc2)/C(=N/c2ccccc2)N1c1ccc2ccccc2c1 class 0

Recorded test outcome, item COc1ccc(/C=C2\CCS(=O)(=O)c3ccccc3C2=O)cc1 class 0

Recorded test outcome, item C=CCO/N=C(\OC(=O)c1ccc([N+](=O)[O-])cc1)c1ccccc1 class 0

Recorded test outcome, item COc1ccc(-c2c(C#N)c(-c3ccccc3)n(NS(=O)(=O)c3ccccc3)c(=O)c2C#N)cc1 class 0

Recorded test outcome, item COc1cc2c(c(O)c1OC)C(=O)[C@@H]1CCC(=O)N1C2c1ccccc1 (some centres not stated) class 0

Recorded test outcome, item O=[N+]([O-])c1ccc(/C=N\N=c2/ccc([N+](=O)[O-])c[nH]2)cc1 class 0

Recorded test outcome, item COC(=O)N1CC[C@@H]2CCC=C(c3cccc4c3OCO4)[C@@H]21 class 0

Recorded test outcome, item Cn1c(=O)n2c(=O)n(C)c(=O)n2c1=O class 0

Recorded test outcome, item O=C(O)Cc1ccc(Oc2nc3ccccc3nc2-c2cccs2)cc1 class 0

Recorded test outcome, item CC(=O)C(CN(Cc1ccccc1)Cc1ccccc1)C(c1ccccc1)c1c(O)c2ccccc2oc1=O (configuration not stated) class 0

Recorded test outcome, item CCOC(=O)NC(Nc1ccc(C(=O)OCC)cc1)(C(F)(F)F)C(F)(F)F class 0

Recorded test outcome, item CCOC(=O)c1c(-c2ccccc2)[nH]c2ccc(Cl)cc2c1=O class 0

Recorded test outcome, item C/C(=N\N=C(/[SeH])N1CC2CCC(CC2)C1)c1ccccn1 class 1

Recorded test outcome, item O=C1c2ccccc2C(=O)c2[nH]c(Cc3ccccc3F)nc21 class 0

Recorded test outcome, item Cc1nn(C(=O)c2ccc(Cl)cc2)c2c1C(/C=C/c1ccccc1)SC(=N)N2 (configuration not stated) class 0

Recorded test outcome, item CCOC(=O)/C(=C\NC(=S)Nc1ccc(Cl)c(Cl)c1)C(=O)c1ccccc1 class 0

---

Test system: SK-MEL-5
Assay: NCI tumour cell line growth inhibition, 48 h
Calls of active or inactive are those of the source. Rule as the data show it: active = GI50 up to about 1.1 µM and inactive = higher.
Lab note: assign the record to one of Y (active), N (inactive)

Recorded test outcome, item CCCCCCCCCCCCCCCCOc1ccc(/C=C/C2=[N+](CCCl)CCO2)cc1 N

Recorded test outcome, item CC(C)(C(=O)NN)c1ccccc1 N

Recorded test outcome, item Clc1ccc2c(NC3CCC(N4CCCCC4)CC3)ccnc2c1 (configuration not stated) N

Recorded test outcome, item NC(=O)SCC(=O)Nc1ccc2cccc3c2c1CC3 N

Recorded test outcome, item N#CC(C(=O)CCC(=O)C(C#N)c1ccccc1)c1ccccc1 (configuration not stated) N

Recorded test outcome, item O=S1(=O)c2ccccc2N2CCCc3cc(Cl)cc1c32 N

Recorded test outcome, item C[C@H]1[C@H](C)N1CC(O)Cn1ccnc1[N+](=O)[O-] (some centres not stated) N

Recorded test outcome, item CCOC(=O)c1nnsc1NC(=O)Nc1ccc(Cl)cc1 N

Recorded test outcome, item CCOC(=O)c1ncn2c1[nH]c(=S)c1ccccc12 N

Recorded test outcome, item NS(=O)(=O)c1c(O)c2ccccc2oc1=O N

Recorded test outcome, item O=C(CCN1CCCCC1)Nc1ccc2sc3ccccc3c(=O)c2n1 N

Recorded test outcome, item COc1ccc(OC)c(NC2=NCCO2)c1 N

Recorded test outcome, item COc1ccc(-c2cc(-c3ccncc3)nc(N)c2-c2ccc(F)cc2)cc1 N

Recorded test outcome, item NC(=O)ON=C1CCN(Cc2ccccc2)CC1 N

Recorded test outcome, item C=C(Br)CNCC(=C)Br N

Recorded test outcome, item CC1CC[C@]2(C(=O)O)CCC3(COC(=O)/C=C\c4ccc(O)cc4)C(=CCC4[C@@]5(C)CC[C@H](O)C(C)(C)C5CC[C@]43C)[C@@H]2[C@H]1C (some centres not stated) N

Recorded test outcome, item C[N+]1=C(c2cccnc2/C=N/O)OCC1(C)C N

Recorded test outcome, item CC(=O)OC1COC(N2C(=O)C(=O)c3cc(Br)ccc32)C(OC(C)=O)C1OC(C)=O (configuration not stated) N

Recorded test outcome, item CC(=O)NC1=C(NCCC(C)C)C(=O)c2ccccc2C1=O N

Recorded test outcome, item CN1CC[C@]2(c3cccc(O)c3)CC(=O)/C(=C/c3ccccc3)[C@@H]1C2.[O-][Cl+3]([O-])([O-])O N

Recorded test outcome, item CCOc1ccccc1/N=N/C1C(=O)N(C(=O)CC(=O)Nc2ccccc2Cl)N=C1C (configuration not stated) N

Recorded test outcome, item CC1Oc2cc3c(-c4c(O)cc(O)c5c(O)c6c(cc45)OC(C)C(C)C6=O)c(O)cc(O)c3c(O)c2C(=O)C1C (configuration not stated) Y

---

System: KM12
Experiment: NCI tumour cell line growth inhibition, 48 h
Active and inactive are the calls of the source. Cut-off read from the data, not from the text of the source: active = GI50 up to about 1.1 µM and inactive = higher.
Lab note: assign the record to one of active, inactive

Recorded test outcome, item C=C1C(=O)O[C@@H]2C[C@@H](C)[C@@H]3C=CC(=O)[C@@]3(C)[C@@H](OC(=O)CC(=O)O[C@H]3[C@@H]4C(=C)C(=O)O[C@@H]4C[C@@H](C)[C@@H]4C=CC(=O)[C@]43C)[C@H]12 active

Recorded test outcome, item COc1ccccc1C1ON=C(c2ccc([N+](=O)[O-])cc2)N1C12CC3CC(CC(C3)C1)C2 (centres undefined) inactive

Recorded test outcome, item O=[N+]([O-])c1ccc(/C=N\N=c2/ccc([N+](=O)[O-])c[nH]2)cc1 inactive

Recorded test outcome, item N[C@@H](CCC(=O)NC(Cc1ccccc1)C(=O)NCP(=O)(O)O)C(=O)O (some centres undefined) inactive

Recorded test outcome, item CCOC(=O)C12OC(OCC)(CC1(OCC)OCC)C1(CC1)C2=O (centres undefined) inactive

Recorded test outcome, item CN(C)CCCNC(=O)c1cc(NS(=O)(=O)c2ccc3c(c2)C(=O)c2ccccc2C3=O)cn1C inactive

Recorded test outcome, item CCOC(=O)c1[nH]cc(C)c1-c1ccn(-c2ccccc2)c1 inactive

Recorded test outcome, item Cn1c(=O)nc2n(-c3cccc(F)c3)c3ccccc3nc-2c1=O inactive

Recorded test outcome, item Cc1ccc(S(=O)(=O)NC2=NS(=O)(=O)c3cc(C)c(Cl)cc3S2)cc1 inactive

Recorded test outcome, item CC1=C(C(=O)OC2CC3CCC2(C)C3(C)C)C2Nc3ccccc3N(C)C2O1 (centres undefined) inactive

Recorded test outcome, item CC(C)C/N=C(\N)N=C(N)N inactive

Recorded test outcome, item COc1cc(/C=C2\NC(=O)N(/C=C3\C(=O)Oc4ccccc4C3=O)C2=O)ccc1O inactive

Recorded test outcome, item CCOC(=O)c1ccc(N2C(=O)Cc3ccccc3C2=O)cc1 inactive

Recorded test outcome, item COc1ccc(-c2cc(-c3ccc(C)cc3)n(C3OC(COC(C)=O)C(OC(C)=O)C(OC(C)=O)C3OC(C)=O)c(=S)c2C#N)cc1 (centres undefined) inactive

Recorded test outcome, item O=C1c2ccccc2C(=O)c2[nH]c(Cc3ccccc3F)nc21 inactive

Recorded test outcome, item COc1ccc(/N=N/c2ccc3oc(=O)c(C(=O)Nc4ccccc4C)cc3c2)cc1 inactive

Recorded test outcome, item CCOc1ccccc1NC(=O)C(=O)CC(=O)c1c(C)[n+]([O-])c2ccccc2[n+]1[O-] inactive

Recorded test outcome, item Clc1ccc2c(NC3CCC(N4CCCCC4)CC3)ccnc2c1 (centres undefined) inactive

Recorded test outcome, item c1ccc(/C(=N/Nc2ccccn2)c2ncccn2)cc1 inactive
